Provide the recorded kon for the entries that follow.
- Measurement target: human CD3 (huCD3ed) (human) (UniProt P07766)
- Sequence (P07766 23-126, chain 1 of 2): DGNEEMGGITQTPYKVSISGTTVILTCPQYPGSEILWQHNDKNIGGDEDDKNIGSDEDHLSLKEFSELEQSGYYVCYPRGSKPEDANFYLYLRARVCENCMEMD
- Sequence (P04234 22-105, chain 2 of 2, further chain): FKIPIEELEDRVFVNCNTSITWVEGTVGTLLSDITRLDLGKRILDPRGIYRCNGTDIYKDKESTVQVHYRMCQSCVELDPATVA
- Procedure text: Biacore SPR, bispecific hIgG2dA format, 37 C; CD3 antigen not given
Express it in M⁻¹ s⁻¹; write the number only.

Asked: Input h2B4-yaesTK_Ep (bispecific antibody, part only; not given: anti-EpCam arm, constant regions, V domains shown, not shown: another chain or arm of the molecule; a dimerising Fc or GST; small tags and cut ends) VH: EVQLVESGGGLVQPGGSLRLSCAASGFTFSDYYMTWVRQAPGKGLEWVAFIRNRARGYTSDYAESVKGRFTISRDNAKNSLYLQMNSLRAEDTAVYYCARDRPSYYVLDYWGQGTTVTVSS VL: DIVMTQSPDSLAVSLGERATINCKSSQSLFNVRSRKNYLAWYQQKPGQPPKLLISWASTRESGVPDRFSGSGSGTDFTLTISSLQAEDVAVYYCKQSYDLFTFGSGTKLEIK , output reported kon.
Given back: 474000

Asked: Using the record for h2B4-1d_Ep (bispecific antibody, part only; not given: anti-EpCam arm, constant regions, V domains shown, not shown: another chain or arm of the molecule; a dimerising Fc or GST; small tags and cut ends) VH: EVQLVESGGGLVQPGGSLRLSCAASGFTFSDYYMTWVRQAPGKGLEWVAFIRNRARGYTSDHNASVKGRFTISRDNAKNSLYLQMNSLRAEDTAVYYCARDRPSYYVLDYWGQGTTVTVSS VL: DIVMTQSPDSLAVSLGERATINCTSSQSLFNVRSRKNYLAWYQQKPGQPPKLLISWASTRESGVPDRFSGSGSGTDFTLTISSLQAEDVAVYYCKQSYDLFTFGSGTKLEIK , state its measured kon.
Given back: 586000

Asked: Dear colleague, please send me the reported kon for h25A8-B13_Ep (bispecific antibody, part only; not given: anti-EpCam arm, constant regions, V domains shown, not shown: another chain or arm of the molecule; a dimerising Fc or GST; small tags and cut ends) VH: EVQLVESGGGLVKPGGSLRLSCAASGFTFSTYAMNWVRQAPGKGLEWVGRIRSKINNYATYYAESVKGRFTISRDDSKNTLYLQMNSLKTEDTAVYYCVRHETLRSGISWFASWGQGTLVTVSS VL: QAVVTQEPSLTVSPGGTVTLTCRTSTGAVTTSNYANWVQQKPGQAPRGLIGGTNTRAPGTPARFSGSLLGGKAALTLSGAQPEDEAEYYCVLWYNNHWVFGGGTKLTVL when you can.
Given back: 1.2e+06
